Observed IC50 for UniProtKB Q9P2K8, reported per entry below.

What reported IC50 corresponds to Nc1ncnc2c1c(-c1cccc(NS(=O)(=O)c3cc(Cl)cc(CO)c3Cl)c1F)cn2C1CC1 [Example 8] on UniProtKB Q9P2K8?
≤ 100 nM

Lookup [2H]C([2H])([2H])n1cc(-c2cccc(NS(=O)(=O)c3cc(Cl)cc(CO)c3Cl)c2F)c2c(N)ncnc21 [Example 27]
≤ 100 nM

Lookup Cc1c(CO)cc(Cl)cc1S(=O)(=O)Nc1cccc(-c2cn(C)c3ncnc(N)c23)c1F [Example 26]
≤ 100 nM

Lookup Nc1ncnc2c1c(-c1cccc(NS(=O)(=O)c3cc(Cl)cc(CO)c3Cl)c1F)cn2C1COC1 [Example 10]
≤ 100 nM

###

Observed pIC50 for GCN2 kinase (Homo sapiens (Human), UniProt Q9P2K8), reported per entry below.
pIC50: −log10 of the molar value.

COMPOUND: Cn1cc(-c2cccc(NS(=O)(=O)c3cc(F)cc(CO)c3Cl)c2F)c2c(N)ncnc21 [Example 19]
RECORDED_RESULT: 6.30 to 7.00
//
COMPOUND: Nc1ncnc2c1c(-c1cccc(NS(=O)(=O)c3cc(Cl)cc(CO)c3Cl)c1F)cn2C1CNC1 [Example 16]
RECORDED_RESULT: ≥ 7.00
//
COMPOUND: Cn1cc(-c2cccc(NS(=O)(=O)c3cc(Cl)cc(CO)c3F)c2F)c2c(N)ncnc21 [Example 22]
RECORDED_RESULT: 6.30 to 7.00

For the compound Cn1cc(-c2cc(NS(=O)(=O)c3cc(Cl)cc(CO)c3Cl)cc(F)c2F)c2c(N)ncnc21 [Example 7] , what pIC50 is on record?
6.30 to 7.00

Lookup Cc1cc(CO)c(Cl)c(S(=O)(=O)Nc2cccc(-c3cn(C)c4ncnc(N)c34)c2F)c1 [Example 25]
6.30 to 7.00

Lookup Cn1cc(-n2cc(-c3cccc(NS(=O)(=O)c4cc(Cl)cc(CO)c4Cl)c3F)c3c(N)ncnc32)cn1 [Example 31]
≥ 7.00
